test system: SK-MEL-5 melanoma; assay: NCI tumour cell line growth inhibition, 48 h; in the data active = GI50 below about 0.43 µM; inactive = the rest
One label from this list, please: yes (active), no (inactive)

COc1cc(Nc2ncc3c(n2)-c2ccc(Cl)cc2C(c2c(F)cccc2OC)=NC3)ccc1C(=O)O ... no
CCN(CC)c1ccc(/C=C/C(=O)c2cccc(NS(C)(=O)=O)c2)cc1 ... no
COc1ccc2nc(-c3ccccc3)cc(Nc3ccc(/C(C)=N/O)cc3)c2c1 ... no
O=C(c1ccc(O)cc1)c1ccc(C(=O)c2ccc(O)cc2)cc1 ... no
COc1ccc(C(=O)Nc2ncc(Cc3ccc(F)cc3)s2)cc1 ... yes

input: Please indicate how the test categorized CC(C)[C@@H](C(=O)O[C@@H]1/C=C/C(=O)O[C@@H](C)CCC/C=C/[C@@H]2C[C@H](O)C[C@H]21)[N+](C)(C)C .
output: no

input: And for C[C@@H]1CN(Cc2ccc(/C=C/c3n[nH]c4ccc5nc(-c6cn[nH]c6C(F)(F)F)c6c(c5c34)CCCC6)cc2)C[C@H](C)O1 ?
output: no

input: Same question for COC(=O)Nc1nc2c(OC)c(OC)c(OC)cc2[nH]1 please.
output: no

input: // repeat for C/C1=C\CC[C@@](C)(O)[C@H]2C[C@H](CC/C(C)=C/CC1)C1(CC1)C(=O)O2 and report
output: no

input: Entry Nc1c(C(=O)Nc2cccc3ccccc23)sc2nc3c(cc12)CCCC3 please
output: no
